GI50 by entry:
# Tested on: T-47D breast
# MEASUREMENT_DESCRIPTION: NCI tumour cell line growth inhibition, 48 h
PROPERTY_NAME: GI50

SMILES | OBSERVED_VALUE
Cn1c(=O)c(Oc2ccc(F)cc2F)cc2cnc(NCC(C)(C)O)nc21 | > 25 µM
Nc1c(C(=O)Nc2cccc(C(F)(F)F)c2)sc2nc3c(cc12)CCCCCC3 | 1.35 µM
CN(C)CCCCNc1ccc(NCCCCN(C)C)c2c1C(=O)c1c(O)ccc(O)c1C2=O | 18.5 µM
COc1cc(N2CCC(N)CC2)ccc1Nc1ncc(Cl)c(-c2c[nH]c3ccccc23)n1 | 1.78 µM
C[C@]12CC[C@@H]3c4ccc(OC(=O)N(CCCl)CCCl)cc4CC[C@H]3[C@@H]1CC[C@@H]2OP(=O)(O)O | > 56.4 µM
Cc1c(C(=O)c2ccccc2)[n+](=O)c2cc(F)c(F)cc2n1[O-] | 3.7 µM
O=C(/C=C/C=C/c1ccc2c(c1)OCO2)N/N=C\c1ccc(O)cc1O | 2.55 µM
CC/C(=C(/c1ccc(OCCN(C)C)cc1)c1ccc(OC(=O)CCCCCCCCC(=O)c2c(C)[nH]c(/C=C3\N=C(c4ccc[nH]4)C=C3OC)c2C)cc1)c1ccccc1 | 3.56 µM
Cc1cc(-c2cc(OC(=O)c3ccccc3)ccc2Cl)cc2nnc(Nc3ccc(OCCN4CCCC4)cc3)nc12 | 1.57 µM
